target: μ receptor (Rattus norvegicus, UniProt P33535); construct: the brains (minus the cerebellum) were removed, placed in ice-cold saline solution, and then homogenized; from tissue; host or cells: rat brain (minus cerebellum) membranes; test: Radioligand binding assay, μ opioid receptor ((3H)-DAMGO, brain membranes); settings: Ki^μ, Table 1
Sequence (P33535 whole entry): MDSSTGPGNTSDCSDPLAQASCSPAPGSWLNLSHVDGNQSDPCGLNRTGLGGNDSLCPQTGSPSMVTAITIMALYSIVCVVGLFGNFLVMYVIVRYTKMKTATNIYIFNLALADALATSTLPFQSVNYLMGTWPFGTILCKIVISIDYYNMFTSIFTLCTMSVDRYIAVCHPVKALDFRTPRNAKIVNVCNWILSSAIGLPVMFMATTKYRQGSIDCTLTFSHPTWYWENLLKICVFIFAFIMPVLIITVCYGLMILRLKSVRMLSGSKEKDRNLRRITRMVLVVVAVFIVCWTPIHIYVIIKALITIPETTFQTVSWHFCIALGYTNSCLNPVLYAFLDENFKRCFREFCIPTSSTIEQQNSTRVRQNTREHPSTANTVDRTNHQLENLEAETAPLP
Square brackets hold non-standard residues; d marks the D form. Peptide text beside a SMILES is read from it. Phe(4-NO2) = N[C@@H](Cc1ccc([N+](=O)[O-])cc1)C(=O)O; Phe(4-N3) = [N-]=[N+]=Nc1ccc(C[C@H](N)C(=O)O)cc1; 1Nal = N[C@@H](Cc1cccc2ccccc12)C(=O)O; 2Nal = N[C@@H](Cc1ccc2ccccc2c1)C(=O)O; dNle = CCCC[C@@H](N)C(=O)O
# if measured Ki < 1 nM: MET  # else: NOT MET

Sample answers from the record:
INSERT INTO measurements (molecule, classification) VALUES
  ('C[C@@H](NC(=O)[C@@H](N)Cc1ccc(O)cc1)C(=O)N[C@@H](Cc1ccccc1)C(=O)N[C@@H](Cc1ccc([N+](=O)[O-])cc1)C(N)=O [BCH1776, H-Tyr-D-Ala-Phe-Phe(4-NO2)—NH2] (H-Y[dA]F[Phe(4-NO2)]-NH2)', 'MET'),
  ('C[C@@H](NC(=O)[C@@H](N)Cc1ccc(O)cc1)C(=O)N[C@@H](Cc1ccccc1)C(=O)N[C@@H](Cc1ccc(N=[N+]=[N-])cc1)C(N)=O [BCH1778, H-Tyr-D-Ala-Phe-Phe(4-N3)—NH2] (H-Y[dA]F[Phe(4-N3)]-NH2)', 'NOT MET'),
  ('C[C@@H](NC(=O)[C@@H](N)Cc1ccc(O)cc1)C(=O)N[C@@H](Cc1ccc([N+](=O)[O-])cc1)C(=O)N[C@@H](Cc1ccccc1)C(N)=O [BCH1779, H-Tyr-D-Ala-Phe(4-NO2)-Phe-NH2] (H-Y[dA][Phe(4-NO2)]F-NH2)', 'NOT MET'),
  ('CCCC[C@@H](NC(=O)[C@@H](N)Cc1ccc(O)cc1)C(=O)N[C@@H](Cc1ccccc1)C(=O)N[C@@H](Cc1ccccc1)C(N)=O [BCH755, H-Tyr-D-Nle-Phe-Phe-NH2] (H-Y[dNle]FF-NH2)', 'MET'),
  ('C[C@@H](NC(=O)[C@@H](N)Cc1ccc(O)cc1)C(=O)N[C@@H](Cc1c[nH]c2ccccc12)C(=O)N[C@@H](Cc1ccccc1)C(N)=O [BCH1784, H-Tyr-D-Ala-Trp-Phe-NH2] (H-Y[dA]WF-NH2)', 'NOT MET');

Req: Strictly below 1 nM in Ki? C[C@@H](NC(=O)[C@@H](N)Cc1ccc(O)cc1)C(=O)N[C@@H](Cc1ccccc1)C(=O)N[C@@H](Cc1ccc2ccccc2c1)C(N)=O [BCH757, H-Tyr-D-Ala-Phe-2′-Nal-NH2] (H-Y[dA]F[2Nal]-NH2)
Resp: MET

Req: How about C[C@@H](NC(=O)[C@@H](N)Cc1ccc(O)cc1)C(=O)N[C@@H](Cc1cccc2ccccc12)C(=O)N[C@@H](Cc1cccc2ccccc12)C(N)=O [BCH1783, H-Tyr-D-Ala-1′-Nal-1′-Nal-NH2] (H-Y[dA][1Nal][1Nal]-NH2) ?
Resp: NOT MET

Req: How about C[C@@H](NC(=O)[C@@H](N)Cc1ccc(O)cc1)C(=O)N[C@@H](Cc1c[nH]c2ccccc12)C(=O)N[C@@H](Cc1c[nH]c2ccccc12)C(N)=O [BCH1786, H-Tyr-D-Ala-Trp-Trp-NH2] (H-Y[dA]WW-NH2) ?
Resp: MET
